TARGET: T1, OTR301 (Artificial, UniProt Q9XDM8 SEQ:1-184)
T1 chain: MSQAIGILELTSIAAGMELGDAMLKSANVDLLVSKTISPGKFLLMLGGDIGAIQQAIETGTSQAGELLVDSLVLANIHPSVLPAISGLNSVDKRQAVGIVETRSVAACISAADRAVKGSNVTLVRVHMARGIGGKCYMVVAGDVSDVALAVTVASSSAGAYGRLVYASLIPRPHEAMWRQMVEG
PROCEDURE DETAILS: fluorescence quenching kinetics koff/kon, PBS, room temp
EXPERIMENTAL CONDITIONS: tags: C-terminal His6; chain copies: 24 (inferred); label: Atto488 5'
READOUT LABEL: Kd (nM)

[[record]]
binder = "TTAATTAAAGACTTCAAGCGG (ssDNA) [Atto488-ssDNA (A488-DNA)]"
readout_label = "Kd"
experimental_value = 2.12

